Assay notes: protein stability index of a GFP-peptide fusion (yeast GPS) (PSI 1-4); higher = more stable; sorted into four equal gates, so the index is relative within each strain
Particulars: pdr5∆
Measurement label: protein stability index
A bare number is all that is needed in reply.

TSAKEPSENDVFYRMQQ [RPO31]: 3.08
PIRINSTEEIEYIELEY [YMR129W/POM152]: 3.04
PAGFTHKLSNWLFGWND [YDL088C/ASM4]: 3.07
SPEEQRSLLQEAIETCK [GAL11]: 2.97
LIGCIPYSKNAVEQLAG [YDL088C/ASM4]: 3.01

Please look at the following sequence next.
QUERY: Reported protein stability index for NENNNNSSEKNNNNNNN [MED2] : what is it?
RESULT: 2.96
